// provenance: ChEMBL document CHEMBL5260841

- Tested on: BaF3
- Protocol Description: Antiproliferative activity against mouse BaF3 cells transfected with TEL-fused FLT3 assessed as cell growth inhibition incubated for 72 hrs by CCK-8 assay
- Type: functional
Observable: GI50 (nM)
Write the answer as a number in nM, unit excluded.

Worked set:
CC(=O)Nc1cc(Oc2ccc(NC(=O)Cc3c(Cl)cccc3Cl)cc2)ncn1 = 663
C=CC(=O)Nc1cc(Oc2ccc(NC(=O)Nc3ccc(C)c(C(F)(F)F)c3)cc2)ncn1 = 8
Cc1ccc(NC(=O)Nc2ccc(Oc3cc(NCc4ccccc4)ncn3)cc2)cc1C(F)(F)F = 7
CC(=O)Nc1cc(Oc2ccc(NC(=O)Cc3ccc(C(F)(F)F)cc3C(F)(F)F)cc2)ncn1 = 325
Cc1ccc(NC(=O)Nc2ccc(Oc3cc(NCCO)ncn3)cc2)cc1C(F)(F)F = 18

QUERY: Please report GI50 with BaF3 for item COCCNc1cc(Oc2ccc(NC(=O)Nc3ccc(C)c(C(F)(F)F)c3)cc2)ncn1 .
RESULT: 9

QUERY: Provide measured GI50 on BaF3 for COc1ccc(CNc2cc(Oc3ccc(NC(=O)Nc4ccc(C)c(C(F)(F)F)c4)cc3)ncn2)cc1 please.
RESULT: 0.9

QUERY: Supply GI50 measured with BaF3 for Cc1ccc(NC(=O)Nc2ccc(Oc3cc(N(C)CCO)ncn3)cc2)cc1C(F)(F)F .
RESULT: 169
